Reference source: paper PMC6355875

TEST TARGET: hPPAR-δ (Homo sapiens)
Sequence (Q03181 147-441): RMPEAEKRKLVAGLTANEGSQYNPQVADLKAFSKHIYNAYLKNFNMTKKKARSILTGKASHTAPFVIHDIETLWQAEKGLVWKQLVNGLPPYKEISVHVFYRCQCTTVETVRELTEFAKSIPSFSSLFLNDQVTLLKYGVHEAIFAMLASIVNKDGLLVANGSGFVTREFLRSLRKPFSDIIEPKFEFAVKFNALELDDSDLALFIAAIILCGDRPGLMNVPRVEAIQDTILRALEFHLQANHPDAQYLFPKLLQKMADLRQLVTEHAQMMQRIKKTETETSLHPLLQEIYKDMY
PROCEDURE TEXT: GAL4-DBD hPPARδ/LBD luciferase reporter assay in HEK293T cells
ASSAY CONTEXT: activation, HEK293T reporter, overnight
Procedure: A GAL4-DNA Binding Domain (GAL4-DBD) fusion protein was constructed for each PPAR family member. To assess compound activity, each construct was co-transfected into HEK293T cells (American Type Culture Collection; Manassass, VA) along with the reporter construct, pGL5 (Promega) using Fugene 6 (Promega) as a transfection reagent and the manufacturer’s protocol. […] Luciferase levels were then determined following the addition of Bright-Glo (Promega) using the manufacturer’s recommendations.
MEASURED METRIC: EC50 (µM)
Answer format: numeric, µM implied, no suffix.

Observe how each entry below is paired with its result.
[
  {
    "COMPOUND": "COCCCn1c(SCc2cccc(C(=O)O)c2)nc2sc3c(c2c1=O)CCCS3 [GNF-5154]",
    "EC50 (µM)": 7.04
  },
  {
    "COMPOUND": "COc1ccc(C(=O)/C=C/c2c(C)nn(-c3ccccc3)c2Cl)cc1CSCC(=O)O [GNF-4909]",
    "EC50 (µM)": 8.24
  }
]

Now turn to the next compound.
-- ask What measured EC50 goes with O=C(O)Cc1csc(SCc2cc(F)cc3c2OC(c2ccccc2)OC3)n1 (stereo not drawn) [GNF-1051] ?
-- reply 7.76
